Could you please report measured AUC(0-t) for the items listed next?
- measurement.notes: Pharmacokinetic experiment in BALB/c mice
- Assay type: in vivo
- condition.summary: male, mouse, plasma, PO, 5 mg/kg
Response body: numeric value in ng·h/mL, unit text excluded.

Incoming: Recorded AUC(0-t) of N#Cc1ccc2c(c1)COc1cc(C[C@@H](C#N)NC(=O)[C@@H]3CNCCCO3)c(F)cc1-2 , please.
Outgoing: 6610

Incoming: Follow-up item: Cn1c(=O)oc2ccc(-c3ccc(C[C@@H](C#N)NC(=O)[C@@H]4CNCCCO4)cc3)cc21 [AZD7986, reference compound]
Outgoing: 2130

====

- measurement.notes: Pharmacokinetic experiment in beagle dogs
- Type: in vivo
- condition.summary: male, dog, plasma, PO, 2 mg/kg
readout.type: AUC(0-t)

Incoming: Recorded AUC(0-t) of N#Cc1ccc2c(c1)COc1cc(C[C@@H](C#N)NC(=O)[C@@H]3CNCCCO3)c(F)cc1-2 , please.
Outgoing: 10900 ng·h/mL

Incoming: Follow-up item: Cn1c(=O)oc2ccc(-c3ccc(C[C@@H](C#N)NC(=O)[C@@H]4CNCCCO4)cc3)cc21 [AZD7986, reference compound]
Outgoing: 3670 ng·h/mL

====

- assay.system: rhCatC (Homo sapiens (Human), UniProt P53634)
- Sequence (P53634 25-134): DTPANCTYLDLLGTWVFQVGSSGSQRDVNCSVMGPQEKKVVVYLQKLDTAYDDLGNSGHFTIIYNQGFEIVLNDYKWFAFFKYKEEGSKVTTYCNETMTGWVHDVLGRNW
- Sequence (P53634 231-394): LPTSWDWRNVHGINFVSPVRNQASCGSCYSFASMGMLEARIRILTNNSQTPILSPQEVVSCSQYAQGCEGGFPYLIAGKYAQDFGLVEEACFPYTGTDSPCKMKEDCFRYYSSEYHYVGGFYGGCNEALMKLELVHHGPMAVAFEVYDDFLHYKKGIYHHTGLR
- Sequence (P53634 395-463): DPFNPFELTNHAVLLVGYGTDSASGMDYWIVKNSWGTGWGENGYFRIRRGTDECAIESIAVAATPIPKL
- measurement.notes: In vitro enzyme activity experiment of rhCatC (AMC fluorescence assay)
- Assay type: biochemical
- condition.summary: rhCatC enzyme, substrate H-Gly-Arg-AMC; read-out: Biological activity IC50
Counter-ions that a name gives are not always drawn.
Could you please report measured log10 IC50 for the items listed next?
log10 IC50, nM

Incoming: Provide the documented log10 IC50 with rhCatC (Homo sapiens (Human), UniProt P53634) as the system for N#C[C@H](Cc1ccc2c(c1)OCc1cc(F)c(F)cc1-2)NC(=O)[C@@H]1CNCCCO1
Outgoing: 1.96

Incoming: Follow-up item: N#CC(Cc1ccc2c(c1)CCC2)NC(=O)[C@@H]1CNCCCO1 (stereo partly shown) [Compound 5, trifluoroacetate]
Outgoing: 3.56

Incoming: Follow-up item: N#C[C@H](Cc1ccc2c(c1)oc1cc(F)ccc12)NC(=O)C1(N)CCOCC1
Outgoing: 0.76

Incoming: Follow-up item: N#Cc1cnc2c(c1)COc1cc(CC(C#N)NC(=O)[C@@H]3CNCCCO3)c(F)cc1-2 (stereo partly shown)
Outgoing: 1.93

Incoming: Follow-up item: N#C[C@H](Cc1ccc2c(c1)CN(C(=O)c1ccc(F)cc1)C2)NC(=O)C1(N)CCOCC1
Outgoing: 2.24

Incoming: Follow-up item: N#C[C@H](Cc1ccc2c(c1)CN(c1ccccc1)C2=O)NC(=O)[C@@H]1CNCCCO1
Outgoing: 2.85

Incoming: Follow-up item: N#Cc1cc2c(cn1)-c1cc(F)c(CC(C#N)NC(=O)[C@@H]3CNCCCO3)cc1OC2 (stereo partly shown)
Outgoing: 1.69

Incoming: Follow-up item: N#C[C@H](Cc1ccc2c(c1)CCN(c1ccc(F)cc1)C2)NC(=O)C1(N)CCOCC1
Outgoing: 1.68

Incoming: Follow-up item: N#C[C@H](Cc1ccc2c(c1)C(=O)N(c1ccccc1)C2)NC(=O)C1(N)CCOCC1
Outgoing: 1.28

Incoming: Follow-up item: N#C[C@H](Cc1ccc2c(c1)CCc1ccccc1-2)NC(=O)[C@@H]1CNCCCO1
Outgoing: 1.78

Incoming: Follow-up item: N#CC(Cc1ccc2c(c1)CCCC2)NC(=O)C1(N)CCOCC1 (stereo not shown)
Outgoing: 1.73

Incoming: Follow-up item: N#CC(Cc1ccc2c(c1)COc1cc(F)ccc1-2)NC(=O)[C@@H]1CNCCCO1 (stereo partly shown)
Outgoing: 2.48

Incoming: Follow-up item: CC1(C)Oc2cc(C[C@@H](C#N)NC(=O)[C@@H]3CNCCCO3)c(F)cc2-c2ccc(C#N)cc21
Outgoing: 1.36

Incoming: Follow-up item: N#CC(Cc1ccc2c(c1)OCc1cc(F)ccc1-2)NC(=O)C1(N)CCOCC1 (stereo not shown) [Compound 22, formate]
Outgoing: 0.51

Incoming: Follow-up item: CS(=O)(=O)c1ccc2c(c1)COc1cc(C[C@@H](C#N)NC(=O)[C@@H]3CNCCCO3)c(F)cc1-2
Outgoing: 1.00

Incoming: Follow-up item: N#CC(Cc1ccc2c(c1)CCc1ccccc1-2)NC(=O)C1(N)CCOCC1 (stereo not shown)
Outgoing: 0.83
